Below, each entry is listed alongside its reported log10 of IC50.
Tested on: mixed cortical cell cultures containing neurons and glia
Test: Fe2+-induced free radical neurotoxicity in mixed cortical cell cultures (LDH release)
Format: cell-based, mouse
Conditions: Mus musculus, Neuron; 50 μM FeCl2, neuronal death 24 hr later (LDH); read-out: IC50 (50% protection against Fe^2+-induced free radical neurotoxicity)
On a log10 scale: recorded IC50, unit nM.

compound	log10 of IC50
COc1ccc(CNc2ccc(O)c(C(=O)O)c2)cc1	3.15
O=C(O)c1cc(NCc2ccc([N+](=O)[O-])cc2)ccc1O	3.28
Cc1c(C)c2c(c(C)c1O)CCC(C)(C(=O)O)O2 (stereo not shown) [Trolox, reference compound]	3.52

Please look up its log10 of IC50: O=C(O)c1cc(NCCc2ccc([N+](=O)[O-])cc2)ccc1O
2.43

Please look up its log10 of IC50: O=C(O)c1cc(NCCc2ccc(C(F)(F)F)cc2)ccc1O
2.00

Please look up its log10 of IC50: O=C(O)c1cc(NCCCc2ccc([N+](=O)[O-])cc2)ccc1O
2.30

Please look up its log10 of IC50: O=C(O)c1cc(NCc2c(F)c(F)c(C(F)(F)F)c(F)c2F)ccc1O [2-Hydroxy-TTBA]
2.04

====

Assay: single-dose toxicity test
Details: mouse, in vivo; single dose
assay-metric: LD50

Please look up its LD50: O=C(O)c1cc(NCCc2ccc(C(F)(F)F)cc2)ccc1O
> 3000 mg/kg

====

Test system: beta-amyloid (Aβ42)
Assay: suppression of beta-amyloid (Aβ42) production in CHO cells (ELISA)
Assay type: cell-based, Chinese hamster
Settings: Cricetulus griseus; CHO cells stably transfected with human wild APP695 and PS1ΔExon9; culture medium, ELISA; read-out: Aβ42 lowering effect (IC50)
assay-metric: pIC50
A value of pIC50 is the negative decimal logarithm of a concentration given in moles per litre.

In the examples that follow, each entry is paired with its recorded pIC50.
compound	pIC50
O=C(O)c1cc(NCCc2ccc(F)c(F)c2)ccc1O [chemical 21]	4.17
O=C(O)c1cc(NCCc2ccc(Cl)cc2Cl)ccc1O [chemical 24]	4.53
O=C(O)c1cc(NCCCc2ccc(Cl)c(Cl)c2)ccc1O [chemical 43]	3.96
O=C(O)c1cc(NCCCc2ccc(C(F)(F)F)cc2)ccc1O [chemical 42]	4.17
O=C(O)c1cc(NCCc2ccc(C(F)(F)F)cc2)ccc1O [chemical 01]	4.71

Please look up its pIC50: O=C(O)c1cc(NCCc2cc(C(F)(F)F)cc(C(F)(F)F)c2)ccc1O [chemical 27]
3.96

Please look up its pIC50: O=C(O)c1cc(NCCc2ccc(OC(F)(F)F)cc2)ccc1O [chemical 16]
4.17

====

Test system: mixed cortical cell cultures containing neurons and glia
Assay: Fe2+-induced free radical neurotoxicity in mixed cortical cell cultures (LDH release)
Type: cell-based, mouse
Settings: 50 μM FeCl2, neuronal death 24 hr later (LDH); read-out: IC50 (50% protection against Fe^2+-induced free radical neurotoxicity)
assay-metric: IC50 (nM)
Just the number please, in nM, no unit attached.

In the examples that follow, each entry is paired with its recorded IC50.
molecule	endpoint-unit	numeric-result
O=C(O)c1cc(NCc2c(F)c(F)c(F)c(F)c2F)ccc1O [PBAS]	nM	100
O=C(O)c1cc(NCc2ccc(Cl)cc2)ccc1O [CBAS]	nM	200
O=C(O)c1cc(NCc2ccc(F)cc2)ccc1O [FBAS]	nM	300

Now, please, on to the next molecule.
Please look up its IC50: O=C(O)c1cc(NCc2ccc(C(F)(F)F)cc2)ccc1O [TBAS]
310
